- testedOn: EGFR-L858R/C797S (H1975-clone #8 cells) (Homo sapiens, UniProt P00533, C797S/L858R)
- Construct: expressed in transfected cells; host or cells: H1975 (endogenous EGFR knocked out, clone #8)
- procedureDetails: Cell degradation of EGFR, HTRF assay, H1975-clone#8 (L858R/C797S) cells
- Format: cell-based
- testConditions: 16 h treatment, EGFR degradation
Kindly state DC50 for each of the entries shown.
Numbers only, in nM.

Look over these answered cases.
COC[C@@H]1CN(c2ccc3c(c2)N2C[C@@H]4CC[C@H](COc5c(c(C)nn5CCO)-c5cc(cc(C)n5)C(=O)/N=C/2N3)C4)CCN1C1CCN(c2cc(F)c([C@H]3CCC(=O)NC3=O)c(F)c2)CC1: 1.88
Cc1cc2cc(n1)-c1c(C)nn(C)c1OC[C@H]1CC[C@H](C1)CN1/C(=N/C2=O)Nc2ccc(N3CCN(CCC4CCN(c5cc(F)c([C@H]6CCC(=O)NC6=O)c(F)c5)CC4)CC3)cc21: 5.83
Cc1cc2cc(n1)-c1cnn(C)c1OC[C@H]1CC[C@H](C1)CN1/C(=N/C2=O)Nc2ccc(N3CCN([C@H]4CCN(c5cc(F)c(C6CCC(=O)NC6=O)nc5C)C[C@H]4F)CC3)cc21 (some centres unmarked): 3.19
Cc1cc2cc(n1)-c1cnn(C)c1OC[C@H]1CCC(C1)CN1/C(=N/C2=O)Nc2ccc(N3CCC4(CC3)CN(C3CCN(c5cc(F)c([C@H]6CCC(=O)NC6=O)c(F)c5)CC3)C4)cc21: 0.55

We next turn to a different molecule, shown below.
Would you mind telling me what DC50 value was observed for Cc1cc2cc(n1)-c1c(C)nn(C)c1OC[C@H]1CCC(C1)CN1/C(=N/C2=O)Nc2ccc(N3CCN(C4CCN(c5ccc(C6CCC(=O)NC6=O)nc5C)CC4)CC3)cc21 (some centres unmarked) ? 0.64

====

Kindly state Imax (%) for each of the entries shown.
- testedOn: p-EGFR L858R (BaF3-L858R cells) (Homo sapiens, UniProt P00533, L858R)
- Construct: host or cells: BaF3
- procedureDetails: Cell p-EGFR inhibition assay, HTRF, BaF3-L858R cells
- Format: cell-based
- testConditions: 16 h treatment, maximum percentage of pEGFR inhibition
- Method: BaF3-L858R (abbv. L858R) cell were purchased from Kangyuan Bochuang Biotechnology (Beijing) Co., Ltd. H1975-#23 and BaF3-L858R cells are treated with compounds diluted in 0.1% DMSO cell culture medium on day 2, incubate for 16 h, 37° C., 5% CO2. the final concentration of compounds in all assay is start with 10 uM, 5-fold dilution, total 8 doses were included. […] High control=Cell group with added DMSO and without compound, indicating microplate readings without p-EGFR inhibited. […]
One number for each entry, in %.

Look over these answered cases.
Cc1cc2cc(n1)-c1c(C)nn(C)c1OC[C@H]1CC[C@H](C1)CN1/C(=N/C2=O)Nc2ccc(N(C)C3CCN(C4CCN(c5cc(F)c([C@H]6CCC(=O)NC6=O)c(F)c5)CC4)CC3)cc21: 98.2
Cc1cc2cc(n1)-c1cnn(C)c1OC[C@H]1CCC(C1)CN1/C(=N/C2=O)Nc2ccc(N3CCC(N4CCC(Nc5cc(F)c([C@H]6CCC(=O)NC6=O)c(F)c5)CC4)CC3)cc21 (single isomer, unassigned): 98.5
COC[C@@H]1CN(c2ccc3c(c2)N2CC4CC[C@H](COc5c(c(C(F)(F)F)nn5C)-c5cc(cc(C)n5)C(=O)/N=C/2N3)C4)CCN1C1CCN(c2cc(F)c([C@H]3CCC(=O)NC3=O)c(F)c2)CC1: 91.3

Go through the items and report each one's Imax (%).
1. Cc1nn(C)c2c1-c1cc(cc(Cl)n1)C(=O)/N=C1\Nc3ccc(N4CCN(C5CCN(c6cc(F)c([C@H]7CCC(=O)NC7=O)c(F)c6)CC5)CC4)cc3N1C[C@@H]1CC[C@H](CO2)C1
2. COC[C@@H]1CN(c2ccc3c(c2)N2CC4CC[C@H](COc5c(cnn5C)-c5cc(cc(C)n5)C(=O)/N=C/2N3)C4)CCN1C1CCN(c2cc(F)c(C3CCC(=O)NC3=O)nc2C)CC1 (stereo partly drawn)
3. Cc1cc2cc(n1)-c1c(C)nn(C)c1OC[C@H]1CC[C@H](C1)CN1/C(=N/C2=O)Nc2ccc(N3CCN(CC4CN(c5cc(F)c([C@H]6CCC(=O)NC6=O)c(F)c5)C4)CC3)cc21
4. COC[C@H]1CN(c2ccc3c(c2)N2C[C@@H]4CC[C@H](COc5c(c(C)nn5CCO)-c5cc(cc(C)n5)C(=O)/N=C/2N3)C4)CCN1C1CCN(c2cc(F)c([C@H]3CCC(=O)NC3=O)c(F)c2)CC1
5. Cc1cc2cc(n1)-c1c(C)nn(C)c1OC[C@H]1CCC(C1)CN1/C(=N/C2=O)Nc2ccc(N3CCN(C4CCN(c5cc(F)c([C@H]6CCC(=O)NC6=O)c(F)c5)CC4)[C@@H](C)C3)cc21
6. COC[C@@H]1CN(c2ccc3c(c2)N2CC4CC[C@H](COc5c(cnn5C)-c5cc(cc(C)n5)C(=O)/N=C/2N3)C4)CCN1C1CCN(c2c(F)cc(NC3CCC(=O)NC3=O)cc2F)CC1 (stereo partly drawn)
7. COCCn1nc(C)c2c1OC[C@H]1CC[C@H](C1)CN1/C(=N/C(=O)c3cc(C)nc-2c3)Nc2ccc(N3CCN(C4CCN(c5cc(F)c([C@H]6CCC(=O)NC6=O)c(F)c5)CC4)[C@@H](COC)C3)cc21
8. CCc1nn(C)c2c1-c1cc(cc(C)n1)C(=O)/N=C1\Nc3ccc(N4CCN(C5CCN(c6cc(F)c([C@H]7CCC(=O)NC7=O)c(F)c6)CC5)[C@@H](COC)C4)cc3N1C[C@@H]1CC[C@H](CO2)C1

99.14
102.1
99.05
95.16
104.33
96.9
94.19
98.51

Go through the items and report each one's Imax (%).
1. Cc1cc2cc(n1)-c1cnn(CCO)c1OC[C@H]1CCC(C1)CN1/C(=N/C2=O)Nc2ccc(N3CCN(C4CCN(c5cc(F)c([C@H]6CCC(=O)NC6=O)c(F)c5)CC4)CC3)cc21
2. Cc1cc2cc(n1)-c1c(C)nn(C)c1OC[C@H]1CC[C@H](C1)CN1/C(=N/C2=O)Nc2ccc(N3CCC(C)(CN(C)C4CCN(c5cc(F)c([C@H]6CCC(=O)NC6=O)c(F)c5)CC4)CC3)cc21
3. Cc1cc2cc(n1)-c1cnn(C)c1OC[C@H]1CC[C@H](C1)CN1/C(=N/C2=O)Nc2ccc(N3CCC(N4CC(Nc5cc(F)c([C@H]6CCC(=O)NC6=O)c(F)c5)C4)CC3)cc21
4. Cc1cc2cc(n1)-c1c(C)nn(C)c1OC[C@H]1CCC(C1)CN1/C(=N/C2=O)Nc2ccc(N3CCN(CC4CCN(c5cc(F)c([C@H]6CCC(=O)NC6=O)c(F)c5)CC4)[C@H](C)C3)cc21
5. Cc1cc2cc(n1)-c1c(C)nn(C)c1OC[C@H]1CC[C@H](C1)CN1/C(=N/C2=O)Nc2ccc(N3CCN(C[C@@H]4CCN(c5cc(F)c([C@H]6CCC(=O)NC6=O)c(F)c5)C4)CC3)cc21
6. Cc1cc2cc(n1)-c1cnn(C)c1OC[C@H]1CCC(C1)CN1/C(=N/C2=O)Nc2ccc(N3CCN(C4CCN(c5c(F)cc(NC6CCC(=O)NC6=O)cc5F)CC4)CC3)cc21 (stereo partly drawn)
7. Cc1cc2cc(n1)-c1cnn(C)c1OC[C@H]1CCC(C1)CN1/C(=N/C2=O)Nc2cc(C)c(N3CCN([C@@H]4CCN(c5ccc(C6CCC(=O)NC6=O)nc5C)C[C@@H]4F)CC3)cc21 (stereo partly drawn)

1: 96.8; 2: 100.64; 3: 104.4; 4: 98.27; 5: 91.67; 6: 97.2; 7: 95

====

Kindly state DC50 for each of the entries shown.
- testedOn: EGFR L858R (BaF3-L858R cells) (Homo sapiens, UniProt P00533, L858R)
- Construct: host or cells: BaF3
- procedureDetails: Cell degradation of EGFR, HTRF assay, BaF3-L858R cells
- Format: cell-based
- testConditions: 16 h treatment, EGFR degradation
Answers are plain numbers, in nM.

Look over these answered cases.
Cc1cc2cc(n1)-c1c(C)nn(C)c1OC[C@H]1CC[C@H](C1)CN1/C(=N/C2=O)Nc2ccc(N3CCN([C@H]4CCN(c5cnc(C6CCC(=O)NC6=O)cc5C)CC4(F)F)CC3)cc21 (stereo partly drawn): 2.22
Cc1cc2cc(n1)-c1c(C)nn(C)c1OC[C@H]1CC[C@H](C1)CN1/C(=N/C2=O)Nc2ccc(N3CCN(CC4CN(c5cc(F)c([C@H]6CCC(=O)NC6=O)c(F)c5)C4)[C@H](C(F)F)C3)cc21: 5.75
Cc1cc2cc(n1)-c1cnn(C)c1OC[C@H]1CCC(C1)CN1/C(=N/C2=O)Nc2ccc(N3CCN([C@@H]4CCN(c5ccc(OC6CCC(=O)NC6=O)cc5F)C[C@@H]4F)CC3)cc21 (stereo partly drawn): 1.6

Go through the items and report each one's DC50.
1. COC[C@@H]1CN(c2cc3c(cc2F)N/C2=N\C(=O)c4cc(C)nc(c4)-c4c(C)nn(C)c4OC[C@H]4CC[C@H](C4)CN23)CCN1C1CCN(c2cc(F)c([C@H]3CCC(=O)NC3=O)c(F)c2)CC1
2. COC[C@H]1CN(c2ccc3c(c2)N2C[C@@H]4CC[C@H](COc5c(c(C)nn5CCO)-c5cc(cc(C)n5)C(=O)/N=C/2N3)C4)CCN1C1CCN(c2cc(F)c([C@H]3CCC(=O)NC3=O)c(F)c2)CC1
3. COc1cc2c(cc1N1CCN(C3CCN(c4cc(F)c([C@H]5CCC(=O)NC5=O)c(F)c4)CC3)CC1)N1C[C@@H]3CC[C@H](COc4c(c(C)nn4C)-c4cc(cc(C)n4)C(=O)/N=C/1N2)C3
4. Cc1cc2cc(n1)-c1cnn(C)c1OC[C@H]1CC[C@H](C1)CN1/C(=N/C2=O)Nc2ccc(N3CCN(C4CCN(c5ccc(NC6CCC(=O)NC6=O)cc5F)CC4)CC3)cc21 (stereo partly drawn)
5. Cc1cc2cc(n1)-c1c(C)nn(C)c1OC[C@H]1CC[C@H](C1)CN1/C(=N/C2=O)Nc2ccc(N3CCC(N4CCC(Nc5cc(F)c([C@H]6CCC(=O)NC6=O)c(F)c5)CC4)CC3)cc21 (single isomer, unassigned)
6. COC[C@H]1CN(c2cc3c(cc2C)N/C2=N\C(=O)c4cc(C)nc(c4)-c4c(C)nn(C)c4OC[C@H]4CC[C@H](C4)CN23)CCN1C1CCN(c2cc(F)c([C@H]3CCC(=O)NC3=O)c(F)c2)CC1

1: 2.62; 2: 2.11; 3: 1.19; 4: 3.18; 5: 2.18; 6: 5.09

Go through the items and report each one's DC50.
1. COC[C@H]1CN(c2ccc3c(c2)N2C[C@@H]4CC[C@H](COc5c(c(C)nn5C)-c5cc(cc(C)n5)C(=O)/N=C/2N3)C4)CCN1C1CCN(c2ccc(NC3CCC(=O)NC3=O)cc2C)CC1 (stereo partly drawn)
2. Cc1cc2cc(n1)-c1cnn(C)c1OC[C@H]1CCC(C1)CN1/C(=N/C2=O)Nc2ccc(N3CCN(C4CCN(c5ccc(NC6CCC(=O)NC6=O)cc5C)CC4)CC3)cc21 (stereo partly drawn)
3. COC[C@H]1CN(c2ccc3c(c2)N2CC4CC[C@H](COc5c(cnn5C)-c5cc(cc(C)n5)C(=O)/N=C/2N3)C4)CCN1C1CCN(c2cc(F)c(C3CCC(=O)NC3=O)nc2C)CC1 (stereo partly drawn)
4. Cc1cc2cc(n1)-c1c(C)nn(C)c1OC[C@H]1CCC(C1)CN1/C(=N/C2=O)Nc2ccc(N3CCN(C4CCN(c5ccc(C6CCC(=O)NC6=O)nc5C)CC4)CC3)cc21 (stereo partly drawn)
5. Cc1cc2cc(n1)-c1c(C)nn(C)c1OC[C@H]1CC[C@H](C1)CN1/C(=N/C2=O)Nc2ccc(N3CCN(C4CCN(c5cc(F)c([C@H]6CCC(=O)NC6=O)c(F)c5)CC4)C(=O)C3)cc21
6. COCC1(N2CCN(c3ccc4c(c3)N3CC5CC[C@H](COc6c(cnn6C)-c6cc(cc(C)n6)C(=O)/N=C/3N4)C5)CC2)CCN(c2ccc(C3CCC(=O)NC3=O)nc2C)CC1 (stereo partly drawn)
7. Cc1cc2cc(n1)-c1cnn(CCO)c1OC[C@H]1CCC(C1)CN1/C(=N/C2=O)Nc2ccc(N3CCN(C4CCN(c5cc(F)c([C@H]6CCC(=O)NC6=O)c(F)c5)CC4)CC3)cc21

[1.04, 3.37, 3.63, 0.4, 2.79, 6.69, 4.53]

Go through the items and report each one's DC50.
1. Cc1cc2cc(n1)-c1cnn(C)c1OC[C@H]1CC[C@H](C1)CN1/C(=N/C2=O)Nc2ccc(N3CCN(C4CCN(c5cc(F)c([C@H]6CCC(=O)NC6=O)c(F)c5)CC4)CC34COC4)cc21
2. Cc1cc2cc(n1)-c1cnn(C)c1OC[C@H]1CCC(C1)CN1/C(=N/C2=O)Nc2ccc(N3CCN([C@H]4CCN(c5cc(F)c([C@H]6CCC(=O)NC6=O)c(F)c5)C[C@H]4F)CC3)cc21 (single isomer, unassigned)

[4.07, 4.01]
